Provide the reported IC50 at 10 min of each item.
Tested on: CYP3A4/5
assay-notes: Multi-concentration inhibitory activity curve of CYP3A4/5 enzymes (liver microsomes)
Format: in vitro ADME
measurement-setup: pH 7.4, probe midazolam; midazolam as substrate; human liver microsomes
Express it in µM; write the number only.

### Prompt I would be grateful if you could share the reported IC50 at 10 min for CNC(=O)c1ccc(NCC#Cc2cc3c(N[C@@H]4CCN(C)C[C@@H]4F)cccn3c2CC(F)(F)F)c(OC)c1 .
### Response 3.8

### Prompt Need IC50 at 10 min, item CNC(=O)c1ccc(NCC#Cc2cc3c(N[C@@H]4CCN(C)C[C@@H]4F)cccc3n2CC(F)(F)F)c(OC)c1
### Response 2.3
